Species on record: Rattus norvegicus
MEASUREMENT DESCRIPTION: Open TG-GATES - Regimen: Daily Repeat
Type: toxicity, organism-based, Sprague-Dawley
Set-up: regimen Daily Repeat, gender Male, age 6 weeks
MEASUREMENT PARAMETERS: in vivo, po, 0 mg/kg, […], tissue Blood, route gavage, dose level Control, time 7 day
ATTRIBUTE MEASURED: Hb (g/dL)
Give the value in g/dL but do not write g/dL after it.

Example compounds with recorded Hb:
q: Query: Hb; subject: O=[N+]([O-])c1ccc(O)c([N+](=O)[O-])c1
a: 13.5

q: Further, for Cn1cc[nH]c1=S ?
a: 14.2

q: Cc1cccc(C)c1OCC(C)N (centres undefined) ?
a: 12.9

q: Next compound: OCCN1CCN(CCCN2c3ccccc3Sc3ccc(C(F)(F)F)cc32)CC1
a: 13.5

q: Continue with C[C@H]1C(=O)O[C@@H]2CCN3CC=C(COC(=O)[C@](C)(O)[C@]1(C)O)[C@H]23
a: 13.3

q: Would you kindly repeat that for C=C(C)[C@H]1Cc2c(ccc3c2O[C@@H]2COc4cc(OC)c(OC)cc4[C@@H]2C3=O)O1 ?
a: 13.2

q: Same again, this time with C[C@H]1O[C@H](O[C@H]2[C@H](O)[C@@H](O)[C@@H](O[C@H]3[C@H](O)[C@@H](O)C(O)O[C@@H]3CO)O[C@@H]2CO)[C@H](O)[C@@H](O)[C@@H]1N[C@H]1C=C(CO)[C@@H](O)[C@H](O)[C@H]1O (some centres undefined)
a: 13.9

q: Similarly, O=C1CN(/N=C/c2ccc([N+](=O)[O-])o2)C(=O)N1 ?
a: 14.1

Consider the record given below.
q: // query Hb value for entry CCOC(=O)C(C)(C)Oc1ccc(Cl)cc1 [CLOFIBRATE]
a: 14.4
